B1: NECAB1 (parent)
chain: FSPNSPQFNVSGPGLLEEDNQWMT

variants of: B1; assay: protein stability index of a GFP-peptide fusion (GPS, HEK-293T) (PSI 1-6); higher = more stable; conditions: c terminus: a fixed tail appended;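 note: lentivirally expressed fusions sorted by FACS into six bins by GFP to DsRed ratio, PSI derived from sequencing read proportions per bin multiplied by bin number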
What protein stability index was measured for each of the following?
Give only the figure.

Enquiry: Quick one: protein stability index for F8P ?
Return: 3.47

Enquiry: Moving on to P3I
Return: 3.33

Enquiry: Moving on to N9T
Return: 2.62

Enquiry: Moving on to V10F
Return: 2.28

Enquiry: Moving on to P6R
Return: 2.05

Enquiry: Moving on to S11G
Return: 2.76

Enquiry: Moving on to N20K
Return: 2.54

Enquiry: Moving on to N9K
Return: 2.84

Enquiry: Moving on to W22V
Return: 3.79

Enquiry: Moving on to S11F
Return: 2

Enquiry: Moving on to S2D
Return: 4.21

Enquiry: Moving on to G14L
Return: 2.62

Enquiry: Moving on to Q21Y
Return: 2.29

Enquiry: Moving on to L15K
Return: 2.97

Enquiry: Moving on to E17F
Return: 1.69

Enquiry: Moving on to E18F
Return: 2.61

Enquiry: Moving on to E17I
Return: 2.53

Enquiry: Moving on to S5I
Return: 2.75

Enquiry: Moving on to N20F
Return: 2.71

Enquiry: Moving on to S5E
Return: 3.82

Enquiry: Moving on to F8E
Return: 4.44

Enquiry: Moving on to T24N
Return: 2.84

Recorded values, source the supplement of paper PMC10567573.
